Data origin, for the record: patent US20170247448A1

# MEASUREMENT_TARGET: T1, Human hepcidin peptide (hepcidin-25) (human)
# T1 construct: Synthetic 25 aa peptide; also called hep-25; Hep-25
# T1 peptide: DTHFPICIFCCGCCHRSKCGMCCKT
# ASSAY_TEXT: titration affinity ELISA, hepcidin 100 ng/well on Nunc Immobilizer Amino plate, CHO supernatant; antibody 3.13 ng/ml
# maps each entry to its OD 450 nm
PROPERTY: OD 450 nm

# BINDER, OBSERVED_MEASUREMENT
records = [
    ("BAP070-hum01 (antibody, IgG1, V domains shown, Expressed as soluble IgG1 in CHO cells, tested as supernatant; The entries stop inside FR4 (...WGQG / ...FG); also called humanized hit 1) VH: QVQLVQSGAEVKKPGASVKVSCKASGYTFTNYGMNWVRQARGQRLEWIGWINTYTGEPTYADDFKGRLTISKDTSKNQVVLTMTNMDPVDTATYYCTTYATSWYWGQG VL: DIQMTQSPSSLSASVGDRVTITCRASESVDSYGNSFMHWYQQKPGQAPRLLIYRASNLESGVPSRFSGSGSGTDFTFTISSLQPEDIATYYCQQSNEDLTFG", "1.29 OD450"),
    ("BAP070-hum02 (antibody, IgG1, V domains shown, Expressed as soluble IgG1 in CHO cells, tested as supernatant; The entries stop inside FR4) VH: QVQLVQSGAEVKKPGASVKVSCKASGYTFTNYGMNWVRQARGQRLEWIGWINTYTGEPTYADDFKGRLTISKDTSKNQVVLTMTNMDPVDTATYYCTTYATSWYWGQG VL: AIQLTQSPSSLSASVGDRVTITCRASESVDSYGNSFMHWYQQKPGKAPKLLIYRASNLESGIPARFSGSGSGTEFTLTISSLQSEDFAVYYCQQSNEDLTFG", "1.28 OD450"),
    ("BAP070-hum04 (antibody, V domains shown, Expressed as soluble IgG1 in CHO cells, tested as supernatant; The entries stop inside FR4) VH: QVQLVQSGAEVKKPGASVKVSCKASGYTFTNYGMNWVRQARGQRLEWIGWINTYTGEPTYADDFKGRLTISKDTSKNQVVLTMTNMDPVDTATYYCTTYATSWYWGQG VL: AIQLTQSPSSLSASVGDRVTITCRASESVDSYGNSFMHWFQQRPGQSPRRLIYRASNLESGIPPRFSGSGYGTDFTLTINNIESEDAAYYFCQQSNEDLTFG", "1.38 OD450"),
]
